# MEASUREMENT_TARGET: CYP2C19 (Homo sapiens, UniProt P33261)
# Construct: host or cells: human liver microsomes (one value) / recombinant CYP enzyme (other value)
# Sequence (P33261 whole entry): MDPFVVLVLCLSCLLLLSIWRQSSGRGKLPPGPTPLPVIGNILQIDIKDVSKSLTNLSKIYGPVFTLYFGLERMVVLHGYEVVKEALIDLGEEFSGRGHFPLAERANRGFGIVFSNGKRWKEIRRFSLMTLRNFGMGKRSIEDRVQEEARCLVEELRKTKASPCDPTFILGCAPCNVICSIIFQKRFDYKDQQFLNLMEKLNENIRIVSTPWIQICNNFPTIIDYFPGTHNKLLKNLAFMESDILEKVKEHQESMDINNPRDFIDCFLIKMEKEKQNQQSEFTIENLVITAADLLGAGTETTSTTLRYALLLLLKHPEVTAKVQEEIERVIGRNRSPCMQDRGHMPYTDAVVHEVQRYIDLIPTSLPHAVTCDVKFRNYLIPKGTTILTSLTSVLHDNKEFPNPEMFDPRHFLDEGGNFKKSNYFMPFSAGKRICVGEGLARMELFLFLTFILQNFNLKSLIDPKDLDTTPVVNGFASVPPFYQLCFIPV
# ASSAY_TEXT: In vitro CYP inhibition, marker substrate amitriptyline
# Assay type: in vitro ADME
# CONDITION_LABEL: recombinant CYP isoenzyme
READOUT_TYPE: IC50 (µM)
Report as a plain number; the unit µM is understood.

Entry COc1cc(-c2cc3ccncc3c3nc(OCCN(C)C)c4cnccc4c23)cc(OC)c1OC [P8-D6] : IC50 on CYP2C19 (Homo sapiens, UniProt P33261) = 793

====

# MEASUREMENT_TARGET: CYP2B6 (Homo sapiens)
# Construct: host or cells: human liver microsomes (one value) / recombinant CYP enzyme (other value)
# ASSAY_TEXT: In vitro CYP inhibition, marker substrate bupropion
# Assay type: in vitro ADME
# CONDITION_LABEL: recombinant CYP isoenzyme
pIC50: −log10 of the molar value.
READOUT_TYPE: pIC50

Given item COc1cc(-c2cc3ccncc3c3nc(OCCN(C)C)c4cnccc4c23)cc(OC)c1OC [P8-D6] , the value recorded as its pIC50 is < 3.00

====

# ASSAY_TEXT: In vivo plasma pharmacokinetics after i.v. and p.o. administration of P8-D6
# Design: species or system Sprague–Dawley rats
# CONDITION_LABEL: male, Sprague-Dawley, rat, plasma, oral, 50 mg/kg body weight; p.o. 50 mg/kg BW vs i.v. 10 mg/kg BW; read-out: Oral bioavailability
READOUT_TYPE: bioavailability (%)
Lab book: enter the figure in %, no units written.

According to the records, this compound COc1cc(-c2cc3ccncc3c3nc(OCCN(C)C)c4cnccc4c23)cc(OC)c1OC [P8-D6] displays bioavailability of 21.5

====

# MEASUREMENT_TARGET: CYP2B6 (Homo sapiens, UniProt P20813)
# Construct: host or cells: human liver microsomes (one value) / recombinant CYP enzyme (other value)
# Sequence (P20813 whole entry): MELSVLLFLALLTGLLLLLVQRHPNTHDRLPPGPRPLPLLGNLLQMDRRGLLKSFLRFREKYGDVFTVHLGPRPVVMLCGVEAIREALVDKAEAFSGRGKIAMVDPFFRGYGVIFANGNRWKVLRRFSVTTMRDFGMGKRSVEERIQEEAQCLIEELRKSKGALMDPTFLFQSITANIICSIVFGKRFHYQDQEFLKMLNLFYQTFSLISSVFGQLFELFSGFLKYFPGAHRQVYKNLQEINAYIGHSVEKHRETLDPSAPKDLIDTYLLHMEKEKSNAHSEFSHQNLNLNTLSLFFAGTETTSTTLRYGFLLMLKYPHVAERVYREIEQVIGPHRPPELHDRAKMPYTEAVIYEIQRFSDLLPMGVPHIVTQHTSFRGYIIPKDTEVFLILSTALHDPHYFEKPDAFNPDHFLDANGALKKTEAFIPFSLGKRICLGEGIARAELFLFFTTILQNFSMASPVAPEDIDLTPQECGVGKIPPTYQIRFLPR
# ASSAY_TEXT: In vitro CYP inhibition, marker substrate bupropion
# Type: in vitro ADME
# CONDITION_LABEL: HLM
READOUT_TYPE: IC50

Looking up COc1cc(-c2cc3ccncc3c3nc(OCCN(C)C)c4cnccc4c23)cc(OC)c1OC [P8-D6] , I found its IC50 recorded as > 1 mM

====

Form field: IC50 (one value per entry).
# Tested on: OvCar8 spheroids
# ASSAY_TEXT: 3D spheroid cytotoxicity (CellTox Green)
# Assay type: cell-based
# CONDITION_LABEL: Homo sapiens, OVCAR-8, 48 h, OvCar8 3D spheroids, read-out: IC50 cell toxicity (CellTox Green)
Reply with the number and its unit after it.

response.value for CNCCOc1nc2c3cnccc3cc(-c3cc(OC)c(OC)c(OC)c3)c2c2ccncc12 (field: IC50) = 2220 nM

For the next question, use this compound.
For record COc1cc(-c2cc3ccncc3c3nc(OCCN(C)C)c4cnccc4c23)cc(OC)c1OC the listed IC50 is 1110 nM

====

# ASSAY_TEXT: In vivo plasma pharmacokinetics after i.v. and p.o. administration of P8-D6
# Set-up: species or system Sprague–Dawley rats
# CONDITION_LABEL: male, Sprague-Dawley, rat, plasma, iv, 10 mg/kg body weight, i.v.; read-out: plasma half-life t 1/2 (converted)
# Description: The plasma concentration–time profiles and pharmacokinetic parameters of P8-D6 after p.o. and i.v. administration are presented in Figure B and Table . Compartment models were used to calculate the pharmacokinetic parameters and plasma curves. […] To cope with the overlapping curves of absorption and elimination after p.o. administration, compartmental models are used (supplied as Figure S4B,D). […] A fictitious initial plasma concentration, c 0/p.o. = 2.21 μM, was calculated. […]
READOUT_TYPE: half-life (h)
Give a bare numeral; the unit h is implied.

Entry under test: COc1cc(-c2cc3ccncc3c3nc(OCCN(C)C)c4cnccc4c23)cc(OC)c1OC . Its half-life was 5.8

====

# MEASUREMENT_TARGET: BCRP (ABCG2) (Homo sapiens, UniProt Q9UNQ0)
# Sequence (Q9UNQ0 whole entry, species assumed): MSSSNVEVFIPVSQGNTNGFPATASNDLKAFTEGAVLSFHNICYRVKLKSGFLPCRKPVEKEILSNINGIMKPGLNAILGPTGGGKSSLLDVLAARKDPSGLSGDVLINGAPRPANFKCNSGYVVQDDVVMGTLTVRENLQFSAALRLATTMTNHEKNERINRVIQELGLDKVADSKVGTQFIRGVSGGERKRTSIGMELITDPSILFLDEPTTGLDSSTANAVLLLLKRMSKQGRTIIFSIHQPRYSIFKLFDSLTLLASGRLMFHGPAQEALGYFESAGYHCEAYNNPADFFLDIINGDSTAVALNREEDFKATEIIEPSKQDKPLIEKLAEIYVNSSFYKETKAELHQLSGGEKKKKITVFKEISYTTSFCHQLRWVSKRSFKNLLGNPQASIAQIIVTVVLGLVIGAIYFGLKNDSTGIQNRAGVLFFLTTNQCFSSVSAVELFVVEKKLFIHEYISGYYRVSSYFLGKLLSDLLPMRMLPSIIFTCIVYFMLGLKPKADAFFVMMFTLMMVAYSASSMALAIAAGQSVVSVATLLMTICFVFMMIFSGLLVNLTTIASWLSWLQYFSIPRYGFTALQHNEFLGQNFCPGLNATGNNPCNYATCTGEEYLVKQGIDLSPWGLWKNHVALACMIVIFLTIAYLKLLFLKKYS
# ASSAY_TEXT: Transporter inhibition, calcein-AM accumulation in MDCKII cells (BCRP overexpression)
# CONDITION_LABEL: intracellular accumulation of calcein-AM
READOUT_TYPE: IC50 (µM)
# output: bare number, implied unit µM

// sample COc1cc(-c2cc3ccncc3c3nc(OCCN(C)C)c4cnccc4c23)cc(OC)c1OC , its IC50 was 16.3

====

# MEASUREMENT_TARGET: CYP2C8 (Homo sapiens, UniProt P10632)
# Construct: host or cells: human liver microsomes (one value) / recombinant CYP enzyme (other value)
# Sequence (P10632 whole entry): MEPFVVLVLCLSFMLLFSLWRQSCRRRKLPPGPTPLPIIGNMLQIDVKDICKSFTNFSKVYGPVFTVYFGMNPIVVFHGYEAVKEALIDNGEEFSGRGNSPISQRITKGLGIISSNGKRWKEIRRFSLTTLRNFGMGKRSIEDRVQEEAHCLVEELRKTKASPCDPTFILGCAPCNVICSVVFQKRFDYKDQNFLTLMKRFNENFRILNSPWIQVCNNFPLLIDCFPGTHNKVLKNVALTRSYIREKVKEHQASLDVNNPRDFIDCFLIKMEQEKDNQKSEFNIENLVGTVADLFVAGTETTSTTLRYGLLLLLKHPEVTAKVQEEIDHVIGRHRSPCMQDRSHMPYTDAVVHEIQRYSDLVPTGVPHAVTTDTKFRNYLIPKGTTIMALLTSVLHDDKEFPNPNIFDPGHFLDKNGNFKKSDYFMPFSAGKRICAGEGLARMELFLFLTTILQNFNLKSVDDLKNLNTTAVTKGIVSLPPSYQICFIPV
# ASSAY_TEXT: In vitro CYP inhibition, marker substrate amodiaquine
# Format: in vitro ADME
# CONDITION_LABEL: recombinant CYP isoenzyme
READOUT_TYPE: pIC50
Value format note: pIC50 is -log10 of concentration (mol/L); just state the number.

Note to self: pIC50 recorded for COc1cc(-c2cc3ccncc3c3nc(OCCN(C)C)c4cnccc4c23)cc(OC)c1OC [P8-D6] was 3.55

====

# ASSAY_TEXT: In vivo plasma pharmacokinetics after i.v. and p.o. administration of P8-D6
# Design: species or system Sprague–Dawley rats
# CONDITION_LABEL: male, Sprague-Dawley, rat, plasma, po, 50 mg/kg, p.o. 50 mg/kg BW, compartment model; read-out: c max (calculated)
READOUT_TYPE: Cmax (nM)
State just the number; it will be interpreted in nM.

Recorded result, COc1cc(-c2cc3ccncc3c3nc(OCCN(C)C)c4cnccc4c23)cc(OC)c1OC , Cmax: 1250

====

# ASSAY_TEXT: In vivo plasma pharmacokinetics after i.v. and p.o. administration of P8-D6
# Parameters: species or system Sprague–Dawley rats
# CONDITION_LABEL: male, Sprague-Dawley, rat, plasma, iv, 10 mg/kg, i.v. 10 mg/kg BW, plasma; read-out: c max
READOUT_TYPE: Cmax (µM)
The answer is to be given in µM; state only the numeric part.

response.value for COc1cc(-c2cc3ccncc3c3nc(OCCN(C)C)c4cnccc4c23)cc(OC)c1OC (field: Cmax) = 3.95

====

# ASSAY_TEXT: In vivo plasma pharmacokinetics after i.v. and p.o. administration of P8-D6
# Set-up: species or system Sprague–Dawley rats
# CONDITION_LABEL: male, Sprague-Dawley, rat, plasma, iv, 10 mg/kg, i.v. 10 mg/kg BW; read-out: t max
READOUT_TYPE: Tmax (h)
Write the answer as a number in h, unit excluded.

Query COc1cc(-c2cc3ccncc3c3nc(OCCN(C)C)c4cnccc4c23)cc(OC)c1OC [P8-D6] yields Tmax of 0

====

# ASSAY_TEXT: Lipophilicity
# Format: physicochemical
# CONDITION_LABEL: pH 7.4; read-out: log D7.4
READOUT_TYPE: logD
Lab note: jot the number down without any unit.

Form: compound = COc1cc(-c2cc3ccncc3c3nc(OCCN(C)C)c4cnccc4c23)cc(OC)c1OC ; logD = 3.7

====

# ASSAY_TEXT: In vivo plasma pharmacokinetics after i.v. and p.o. administration of P8-D6
# Set-up: species or system Sprague–Dawley rats
# CONDITION_LABEL: male, Sprague-Dawley, rat, plasma, iv; i.v. 10 mg/kg BW; read-out: AUC0–10 h (converted)
READOUT_TYPE: AUC(0-t) (µM·h)
Please respond with the number in µM·h and leave the unit unwritten.

Reported AUC(0-t) ( COc1cc(-c2cc3ccncc3c3nc(OCCN(C)C)c4cnccc4c23)cc(OC)c1OC [P8-D6] ) = 7.49

====

# ASSAY_TEXT: In vivo plasma pharmacokinetics after i.v. and p.o. administration of P8-D6
# Parameters: species or system Sprague–Dawley rats
# CONDITION_LABEL: male, Sprague-Dawley, rat, plasma, iv, 10 mg/kg body weight; i.v., at the time of injection, two-compartment model; read-out: fictitious initial plasma concentration c 0/i.v.
# Method: The plasma concentration–time profiles and pharmacokinetic parameters of P8-D6 after p.o. and i.v. administration are presented in Figure B and Table . Compartment models were used to calculate the pharmacokinetic parameters and plasma curves. […] To cope with the overlapping curves of absorption and elimination after p.o. administration, compartmental models are used (supplied as Figure S4B,D). […] A fictitious initial plasma concentration, c 0/p.o. = 2.21 μM, was calculated. […]
READOUT_TYPE: C0

Notebook: COc1cc(-c2cc3ccncc3c3nc(OCCN(C)C)c4cnccc4c23)cc(OC)c1OC , C0 read as 4.43 µM
